measuredOn: Gonadotropin-releasing hormone receptor (Rattus norvegicus, UniProt P30969)
Sequence (P30969 whole entry): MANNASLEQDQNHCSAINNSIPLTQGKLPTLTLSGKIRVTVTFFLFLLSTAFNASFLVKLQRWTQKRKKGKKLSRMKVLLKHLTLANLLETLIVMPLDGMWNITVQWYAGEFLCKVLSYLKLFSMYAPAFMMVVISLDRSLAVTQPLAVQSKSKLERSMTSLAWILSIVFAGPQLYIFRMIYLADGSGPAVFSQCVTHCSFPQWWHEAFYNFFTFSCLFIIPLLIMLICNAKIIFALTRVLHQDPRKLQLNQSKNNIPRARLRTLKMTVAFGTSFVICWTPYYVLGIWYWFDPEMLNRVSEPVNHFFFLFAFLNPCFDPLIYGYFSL
reportedEndpoint: pIC50
Remember the convention: pIC50 equals -log10 of concentration in molar.

For CC(C)C(=O)c1cn(Cc2c(F)cccc2F)c2sc(-c3ccc(NC(=O)C4(O)CC4)cc3)c(CN(C)Cc3ccccc3)c2c1=O , what is its reported pIC50?
6.82

----------
measuredOn: Gonadotropin-releasing hormone receptor (Homo sapiens)
protocolText: Inhibition of LHRH-stimulated arachidonic acid release in CHO cells expressing human LHRH receptor
Type: functional, cell-based
reportedEndpoint: pIC50
Remember the convention: pIC50 equals -log10 of concentration in molar.

For CC(C)C(=O)c1cn(Cc2c(F)cccc2F)c2sc(-c3ccc(NC(=O)C4(O)CC4)cc3)c(CN(C)Cc3ccccc3)c2c1=O , what is its reported pIC50?
10.00

Subsequent entry: CNC(=O)Nc1ccc(-c2sc3c(c2CN(C)Cc2ccccc2)c(=O)c(C(=O)C(C)C)cn3Cc2c(F)cccc2F)cc1
10.15

----------
measuredOn: Gonadotropin-releasing hormone receptor (Homo sapiens)
protocolText: Inhibition of [125I]leuprorelin binding to human recombinant LHRH receptor expressed in CHO cells
Type: cell-based
reportedEndpoint: IC50 (nM)
Express the result in nM but write the number alone.

For CC(C)C(=O)c1cn(Cc2c(F)cccc2F)c2sc(-c3ccc(NC(=O)CN)cc3)c(CN(C)Cc3ccccc3)c2c1=O , what is its reported IC50?
9

Subsequent entry: CCC(=O)c1cn(Cc2c(F)cccc2F)c2sc(-c3ccc(NC(=O)C(C)C)cc3)c(CN(C)Cc3ccccc3)c2c1=O
0.4

Subsequent entry: CCOC(=O)c1cn(Cc2ccccc2F)c2sc(-c3ccc(NC(C)=O)cc3)c(CN(C)Cc3ccccc3)c2c1=O
2

Subsequent entry: CNC(=O)Nc1ccc(-c2sc3c(c2CN(C)Cc2ccccc2)c(=O)c(C(=O)C(C)C)cn3Cc2c(F)cccc2F)cc1
0.1

Subsequent entry: CCOC(=O)c1cn(Cc2ccccc2OC)c2sc(-c3ccccc3)c(CN(C)Cc3ccccc3)c2c1=O
200

Subsequent entry: CCOC(=O)c1cn(Cc2ccccc2F)c2sc(-c3ccc(NC(=O)CC)cc3)c(CN(C)Cc3ccccc3)c2c1=O
0.4

Subsequent entry: CCOC(=O)c1cn(Cc2ccc(F)cc2)c2sc(-c3ccc(OC)cc3)c(CN(C)Cc3ccccc3)c2c1=O
400

----------
measuredOn: Gonadotropin-releasing hormone receptor (Homo sapiens, UniProt P30968)
Sequence (P30968 whole entry): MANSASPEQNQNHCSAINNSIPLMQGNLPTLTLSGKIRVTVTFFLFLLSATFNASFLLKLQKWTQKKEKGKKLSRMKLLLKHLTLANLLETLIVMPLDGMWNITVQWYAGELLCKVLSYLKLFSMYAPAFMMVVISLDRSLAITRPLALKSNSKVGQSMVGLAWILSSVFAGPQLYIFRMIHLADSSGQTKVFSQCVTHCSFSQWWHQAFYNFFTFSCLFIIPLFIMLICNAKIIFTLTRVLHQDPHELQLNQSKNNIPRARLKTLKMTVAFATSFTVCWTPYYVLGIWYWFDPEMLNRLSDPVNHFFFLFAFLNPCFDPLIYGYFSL
protocolText: Inhibition of [125I]leuprorelin binding to human recombinant LHRH receptor expressed in CHO cells
Format: cell-based
reportedEndpoint: pIC50
Remember the convention: pIC50 equals -log10 of concentration in molar.

For CCOC(=O)c1cn(Cc2ccccc2OC)c2sc(-c3ccc(OC)cc3)c(CNCc3ccccc3)c2c1=O , what is its reported pIC50?
5.70

Subsequent entry: CCOC(=O)c1cn(Cc2ccccc2OC)c2sc(-c3ccc(OC)cc3)c(CN(CC)Cc3ccccc3)c2c1=O
6.52

Subsequent entry: CCOC(=O)c1cn(Cc2ccccc2)c2sc(-c3ccc(NC(=O)C(C)C)cc3)c(CN(C)Cc3ccccc3)c2c1=O
9.22

Subsequent entry: CCOC(=O)c1cn(Cc2cccc(F)c2)c2sc(-c3ccc(OC)cc3)c(CN(C)Cc3ccccc3)c2c1=O
6.52

Subsequent entry: CCOC(=O)c1cn(Cc2ccccc2F)c2sc(-c3ccc(NC(=O)Nc4ccccc4)cc3)c(CN(C)Cc3ccccc3)c2c1=O
7.52

Subsequent entry: CCOC(=O)c1cn(Cc2ccc(OC)cc2)c2sc(-c3ccc(OC)cc3)c(CN(C)Cc3ccccc3)c2c1=O
6.52

Subsequent entry: CCOC(=O)c1cn(Cc2ccccc2C#N)c2sc(-c3ccc(OC)cc3)c(CN(C)Cc3ccccc3)c2c1=O
7.00

Subsequent entry: CC(C)C(=O)c1cn(Cc2c(F)cccc2F)c2sc(-c3ccc(NC(=O)C(C)(C)O)cc3)c(CN(C)Cc3ccccc3)c2c1=O
9.70

Subsequent entry: CC(C)C(=O)c1cn(Cc2c(F)cccc2F)c2sc(-c3ccc(NC(=O)CO)cc3)c(CN(C)Cc3ccccc3)c2c1=O
9.70

Subsequent entry: CCOC(=O)c1cn(Cc2ccccc2F)c2sc(-c3ccc(NC(=O)c4ccccc4)cc3)c(CN(C)Cc3ccccc3)c2c1=O
9.00

Subsequent entry: CC(C)C(=O)c1cn(Cc2c(F)cccc2F)c2sc(-c3ccc(NC(=O)C4(O)CC4)cc3)c(CN(C)Cc3ccccc3)c2c1=O
10.00

Subsequent entry: CCOC(=O)c1cn(Cc2ccccc2F)c2sc(-c3ccc(N)cc3)c(CN(C)Cc3ccccc3)c2c1=O
7.40

Subsequent entry: CCOC(=O)c1cn(Cc2ccccc2OC)c2sc(-c3ccc(OC)cc3)c(CN(C)C)c2c1=O
6.30

Subsequent entry: CCOC(=O)c1cn(Cc2cccc(OC)c2)c2sc(-c3ccc(OC)cc3)c(CN(C)Cc3ccccc3)c2c1=O
6.40

Subsequent entry: CCOC(=O)c1cn(Cc2c(F)cccc2F)c2sc(-c3ccc(NC(=O)C(C)C)cc3)c(CN(C)Cc3ccccc3)c2c1=O
9.70

Subsequent entry: CCC(=O)Nc1ccc(-c2sc3c(c2CN(C)Cc2ccccc2)c(=O)c(C(=O)NC(C)C)cn3Cc2c(F)cccc2F)cc1
8.10

Subsequent entry: CC(C)C(=O)Nc1ccc(-c2sc3c(c2CN(C)Cc2ccccc2)c(=O)c(C(O)C(C)C)cn3Cc2c(F)cccc2F)cc1 (configuration not stated)
9.40

Subsequent entry: CCOC(=O)c1cn(Cc2c(F)cccc2F)c2sc(-c3ccc(NC(=O)CC)cc3)c(CN(C)Cc3ccccc3)c2c1=O
10.00

Subsequent entry: CCOC(=O)c1cn(Cc2ccccc2F)c2sc(-c3ccc(N(C)C(=O)NC)cc3)c(CN(C)Cc3ccccc3)c2c1=O
8.70

Subsequent entry: CCOC(=O)c1cn(Cc2ccccc2OC)c2sc(-c3ccc(OC)cc3)c(CN(Cc3ccccc3)C(C)=O)c2c1=O
5.15

Subsequent entry: CCOC(=O)c1cn(Cc2ccccc2[N+](=O)[O-])c2sc(-c3ccc(OC)cc3)c(CN(C)Cc3ccccc3)c2c1=O
7.00

Subsequent entry: CCOC(=O)c1cn(Cc2ccccc2F)c2sc(-c3ccc(OC)cc3)c(CN(C)Cc3ccccc3)c2c1=O
7.52

Subsequent entry: CCOC(=O)c1cn(Cc2ccccc2OC)c2sc(-c3ccc(OC)cc3)c(C)c2c1=O
5.00

Subsequent entry: CCOC(=O)c1cn(Cc2ccccc2OC)c2sc(-c3ccccc3OC)c(CN(C)Cc3ccccc3)c2c1=O
6.15

Subsequent entry: CCOC(=O)c1cn(Cc2ccccc2)c2sc(-c3cccc(OC)c3)c(CN(C)Cc3ccccc3)c2c1=O
6.30

Subsequent entry: CCOC(=O)c1cn(Cc2c(F)cccc2F)c2sc(-c3ccc(NC(=O)NC)cc3)c(CN(C)Cc3ccccc3)c2c1=O
10.22

Subsequent entry: CCOC(=O)c1cn(Cc2ccccc2)c2sc(-c3ccc(OC)cc3)c(CN(C)Cc3ccccc3)c2c1=O
6.70

Subsequent entry: CCOC(=O)c1cn(Cc2ccccc2F)c2sc(-c3ccc(NC(=O)NC)cc3)c(CN(C)Cc3ccccc3)c2c1=O
10.15

Subsequent entry: CC(C)C(=O)Nc1ccc(-c2sc3c(c2CN(C)Cc2ccccc2)c(=O)c(C(=O)c2ccccc2)cn3Cc2c(F)cccc2F)cc1
10.00

Subsequent entry: CC(C)C(=O)Nc1ccc(-c2sc3c(c2CN(C)Cc2ccccc2)c(=O)c(C(=O)C(C)C)cn3Cc2c(F)cccc2F)cc1
9.70

Subsequent entry: CCOC(=O)c1cn(C)c2sc(-c3ccc(OC)cc3)c(CN(C)Cc3ccccc3)c2c1=O
5.30
